Here the recorded Population Normal (%) is given for each entry.
System: U2OS
Experiment: Multiplex assay against U2OS
Format: toxicity, cell-based
Conditions: human, 48 h, 10 µM, compound concentration 10 uM, replicate 2
property-label: Population Normal (%)

compound=Cl.Oc1ccc2c3c1O[C@H]1c4[nH]c5c(c4C[C@@]4(O)[C@@H](C2)N(CC2CC2)CC[C@]314)C[C@@]1(O)[C@H]2Cc3ccc(O)c4c3[C@@]1(CCN2CC1CC1)[C@H]5O4 property_label="Population Normal (%)" unit_label=% reported_measurement=91
compound="O=C(Nc1ccc(-n2nc(-c3cccnc3)cc2C(F)(F)F)cn1)c1ccc(-c2ccccc2)c(F)c1 [BI 2049]" property_label="Population Normal (%)" unit_label=% reported_measurement=97
compound=CCN1CCN(Cc2ccc(Nc3ncc(F)c(-c4cc(F)c5nc(C)n(C(C)C)c5c4)n3)nc2)CC1.CS(=O)(=O)O property_label="Population Normal (%)" unit_label=% reported_measurement=65
compound=CCn1c(=O)c(-c2ccc(-c3cncs3)cc2Cl)cc2cnc(Nc3ccc(N4CCN(C)CC4)cc3)nc21 property_label="Population Normal (%)" unit_label=% reported_measurement=96
compound="CN1CCN(C(=O)C(C)(C)c2ccc(C(=O)Nc3cn4cc(-c5ccncc5)ccc4n3)cc2)CC1 [T3-CLK]" property_label="Population Normal (%)" unit_label=% reported_measurement=76
compound="O=C1NC(=O)C(c2cnc3ccccn23)=C1c1cn2c3c(cc(F)cc13)CN(C(=O)N1CCCCC1)CC2 [LY-2090314]" property_label="Population Normal (%)" unit_label=% reported_measurement=88
compound=O=C1N/C(=N/c2ccccc2F)S/C1=C\c1ccc(C(=O)O)cc1 property_label="Population Normal (%)" unit_label=% reported_measurement=97

====

Tested on: Fibroblast
Test: Multiplex assay against human fibroblast
Format: toxicity, cell-based
Conditions: 48 h, 10 µM, compound concentration 10 uM, replicate 1
Reported Total Cell Count values follow for various molecules
property-label: Total Cell Count

molecule=Cc1cc(C)c(S(=O)(=O)N(Cc2ccc(-c3cccc(S(C)(=O)=O)c3)cc2)Cc2ccc(C(F)(F)F)o2)c(C)c1 test_target=Fibroblast reported_measurement=192
molecule="O=C(Cc1ccc(-c2ccc(OCCN3CCOCC3)cc2)cn1)NCc1ccccc1 [TIRBANIBULIN]" test_target=Fibroblast reported_measurement=143
molecule="O=C(Nc1ccc(-n2nc(-c3cccnc3)cc2C(F)(F)F)cn1)c1ccc(-c2ccccc2)c(F)c1 [BI 2049]" test_target=Fibroblast reported_measurement=113
molecule=O=C(Nc1ccc(Cl)cc1)Nc1cccc(-c2cccc(N3CCCC3)n2)c1 test_target=Fibroblast reported_measurement=151
molecule=CNc1cc(Oc2cc(C(=O)Nc3cc(N4CCN(C)CC4)cc(C(F)(F)F)c3)ccc2C)ncn1 test_target=Fibroblast reported_measurement=155
molecule=Cl.O=c1c2cccn2c2ccccc2n1CCCN1CCC(c2ccc(Cl)cc2)CC1 test_target=Fibroblast reported_measurement=193
molecule=CCCS(=O)(=O)c1nc(NC2CC2)cc(-c2ccc3c(ccn3C3CC(C)(C)NC(C)(C)C3)c2)n1 test_target=Fibroblast reported_measurement=137
molecule=CCc1cccc(CC)c1NC(=O)c1nn(C)c2c1CCc1cnc(Nc3ccc(C(=O)NC4CCN(C)CC4)cc3OC(F)(F)F)nc1-2 test_target=Fibroblast reported_measurement=172
molecule=CCN1CCN(Cc2ccc(Nc3ncc(F)c(-c4cc(F)c5nc(C)n(C(C)C)c5c4)n3)nc2)CC1.CS(=O)(=O)O test_target=Fibroblast reported_measurement=123
molecule="CCCn1c(=O)c2[nH]c(-c3cnn(Cc4cccc(C(F)(F)F)c4)c3)nc2n(CC)c1=O [GS 6201]" test_target=Fibroblast reported_measurement=234
molecule=Cl.O=C(c1ccc(Nc2nccc(-c3cc4ccccc4s3)n2)cc1)N1CCC(N2CCCC2)CC1 test_target=Fibroblast reported_measurement=120
molecule=CCn1c(=O)c(-c2ccc(-c3cncs3)cc2Cl)cc2cnc(Nc3ccc(N4CCN(C)CC4)cc3)nc21 test_target=Fibroblast reported_measurement=1270
molecule="O=C1NC(=O)C(c2cnc3ccccn23)=C1c1cn2c3c(cc(F)cc13)CN(C(=O)N1CCCCC1)CC2 [LY-2090314]" test_target=Fibroblast reported_measurement=97
molecule="COCC(=O)NC/C=C/c1ccc2ncnc(Nc3ccc(Oc4ccc(C)nc4)c(C)c3)c2c1 [CP-724714]" test_target=Fibroblast reported_measurement=154
molecule=COc1cc(N2CCN(C)CC2)ccc1Nc1ncc2c(n1)N(C)c1ccccc1C(=O)N2C test_target=Fibroblast reported_measurement=201
molecule="CN1CCC(=C2c3ccccc3CC(=O)c3sccc32)CC1.O=C(O)/C=C/C(=O)O [KETOTIFEN FUMARATE]" test_target=Fibroblast reported_measurement=260
molecule="Cc1cn(-c2cc(NC(=O)c3ccc(C)c(Nc4nccc(-c5cccnc5)n4)c3)cc(C(F)(F)F)c2)cn1 [NILOTINIB]" test_target=Fibroblast reported_measurement=2935

====

Recorded measurements of Population Mitotic Cells (%), one per entry
Tested on: HEK-293T
Experiment: Multiplex assay against HEK293T
Assay type: toxicity, cell-based
Conditions: human, 24 h, 10 µM, compound concentration 10 uM, replicate 2
property-label: Population Mitotic Cells (%)

compound="CN1CCC(=C2c3ccccc3CC(=O)c3sccc32)CC1.O=C(O)/C=C/C(=O)O [KETOTIFEN FUMARATE]" unit_label=% reported_measurement=25
compound="Cn1nc(C(F)(F)F)cc1-c1cnc(N2CCc3cc(S(=O)(=O)Nc4c(F)cc(Cl)cc4F)cc(N4CCCC4=O)c32)nc1 [TP-020]" unit_label=% reported_measurement=96
compound=Cl.O=c1c2cccn2c2ccccc2n1CCCN1CCC(c2ccc(Cl)cc2)CC1 unit_label=% reported_measurement=1
compound="CCOC(=O)c1c(C)[nH]c2ccc3c(c12)CN1CCc2cc(OC)ccc2C1O3 (configuration not stated)" unit_label=% reported_measurement=7
compound="COc1cc2ncnc(Nc3ccc(F)c(Cl)c3)c2cc1NC(=O)/C=C/CN1CCCCC1 [DACOMITINIB ANHYDROUS]" unit_label=% reported_measurement=95
compound="Cc1cn(-c2cc(NC(=O)c3ccc(C)c(Nc4nccc(-c5cccnc5)n4)c3)cc(C(F)(F)F)c2)cn1 [NILOTINIB]" unit_label=% reported_measurement=58
compound="C=C1/C(=C\\C=C2/CCC[C@]3(C)[C@@H]([C@H](C)/C=C/[C@H](C)C(C)C)CC[C@@H]23)C[C@@H](O)C[C@@H]1O [DOXERCALCIFEROL]" unit_label=% reported_measurement=74
compound=O=C(Nc1ccc(-c2ccnc(Nc3ccc(N4CCOCC4)cc3)n2)cc1)[C@@H]1CCCN1 unit_label=% reported_measurement=67
compound="CN1CCN(C(=O)C(C)(C)c2ccc(C(=O)Nc3cn4cc(-c5cc(C(C)(C)C)cc(C(C)(C)C)c5)ccc4n3)cc2)CC1 [T3-CLK-N]" unit_label=% reported_measurement=82
compound=S=C(NCCCc1c[nH]cn1)NCCCN(Cc1ccc(Cl)c(Cl)c1)c1ccc(Br)cn1 unit_label=% reported_measurement=18
compound=CCc1cccc(CC)c1NC(=O)c1nn(C)c2c1CCc1cnc(Nc3ccc(N4CCN(C)CC4)cc3OC)nc1-2 unit_label=% reported_measurement=88
compound=NC(=O)c1cccc(-c2cc(Nc3ccc(OC(F)(F)F)cc3)ncn2)c1 unit_label=% reported_measurement=95
compound=CCCS(=O)(=O)c1nc(NC2CC2)cc(-c2ccc3c(ccn3C3CC(C)(C)NC(C)(C)C3)c2)n1 unit_label=% reported_measurement=12
compound=Cc1ccc(C(=O)Nc2cccc(C(F)(F)F)c2)cc1Nc1nc(-c2cccnc2)nc2c1cnn2C unit_label=% reported_measurement=14
compound=COC(=N)c1nc2ccc3ncnc(Nc4ccc(OC)cc4F)c3c2s1 unit_label=% reported_measurement=95
compound=CCN1CCN(Cc2ccc(Nc3ncc(F)c(-c4cc(F)c5nc(C)n(C(C)C)c5c4)n3)nc2)CC1.CS(=O)(=O)O unit_label=% reported_measurement=20
compound="O=C(Nc1ccc(-n2nc(-c3cccnc3)cc2C(F)(F)F)cn1)c1ccc(-c2ccccc2)c(F)c1 [BI 2049]" unit_label=% reported_measurement=94

====

System: U2OS
Test: Multiplex assay against U2OS
Format: toxicity, cell-based
Settings: human, 24 h, 10 µM, compound concentration 10 uM, replicate 1
property-label: Population Normal (%)

compound=CCOc1cc(C(=O)N2CCC(N3CCN(C)CC3)CC2)ccc1Nc1ncc2c(n1)N(C1CCCC1)c1ccccc1C(=O)N2C reported_measurement=92
compound=COc1cccc2cc(-c3nc([C@H]4CC[C@H](C(=O)O)CC4)n4ncnc(N)c34)[nH]c12 reported_measurement=92
compound=Cc1ccc2nc(NCCN)c3ncc(C)n3c2c1.O=C(O)C(F)(F)F.O=C(O)C(F)(F)F reported_measurement=91
compound=S=C(NCCCc1c[nH]cn1)NCCCN(Cc1ccc(Cl)c(Cl)c1)c1ccc(Br)cn1 reported_measurement=78
compound=O=C(Nc1ccc(-c2ccnc(Nc3ccc(N4CCOCC4)cc3)n2)cc1)[C@@H]1CCCN1 reported_measurement=92
compound="CN1C2CCC1CC(OC(c1ccc(F)cc1)c1ccc(F)cc1)C2.Cl (stereo not drawn)" reported_measurement=92
compound=O=C1NC(=O)C(c2cnc3ccccn23)=C1c1cn2c3c(cc(F)cc13)CN(C(=O)N1CCCCC1)CC2 reported_measurement=81
compound="COc1cc2ncnc(Nc3ccc(F)c(Cl)c3)c2cc1NC(=O)/C=C/CN1CCCCC1 [DACOMITINIB ANHYDROUS]" reported_measurement=97
compound="CN1CCC(=C2c3ccccc3CC(=O)c3sccc32)CC1.O=C(O)/C=C/C(=O)O [KETOTIFEN FUMARATE]" reported_measurement=93
compound=CNc1cc(Oc2cc(C(=O)Nc3cc(N4CCN(C)CC4)cc(C(F)(F)F)c3)ccc2C)ncn1 reported_measurement=89
compound="CCOC(=O)c1c(C)[nH]c2ccc3c(c12)CN1CCc2cc(OC)ccc2C1O3 (stereo not drawn)" reported_measurement=95
compound=CCc1cccc(CC)c1NC(=O)c1nn(C)c2c1CCc1cnc(Nc3ccc(C(=O)NC4CCN(C)CC4)cc3OC(F)(F)F)nc1-2 reported_measurement=94
compound=CCN1CCN(c2ccc(Nc3cc(N(C)C(=O)Nc4c(Cl)c(OC)cc(OC)c4Cl)ncn3)cc2)CC1 reported_measurement=97
compound=CCN1CCN(Cc2ccc(Nc3ncc(F)c(-c4cc(F)c5nc(C)n(C(C)C)c5c4)n3)nc2)CC1.CS(=O)(=O)O reported_measurement=91
compound=NC(=O)c1cccc(-c2cc(Nc3ccc(OC(F)(F)F)cc3)ncn2)c1 reported_measurement=99
compound=C=C1/C(=C\C=C2/CCC[C@]3(C)[C@@H]([C@H](C)/C=C/[C@H](C)C(C)C)CC[C@@H]23)C[C@@H](O)C[C@@H]1O reported_measurement=76
compound=C=CCn1c(=O)c2cnc(Nc3ccc(N4CCN(C)CC4)cc3)nc2n1-c1cccc(C(C)(C)O)n1 reported_measurement=86
compound=O=C(Cc1ccc(-c2ccc(OCCN3CCOCC3)cc2)cn1)NCc1ccccc1 reported_measurement=91
compound=Cn1nc(C(=O)NCc2ccc(C(=O)O)cc2)cc1-c1ccc2[nH]ccc2c1 reported_measurement=98
compound=Cc1ccc(C(=O)Nc2cccc(C(F)(F)F)c2)cc1Nc1nc(-c2cccnc2)nc2c1cnn2C reported_measurement=95
compound=CCc1cccc(CC)c1NC(=O)c1nn(C)c2c1CCc1cnc(Nc3ccc(N4CCN(C)CC4)cc3OC)nc1-2 reported_measurement=98
compound=Cc1cn(-c2cc(NC(=O)c3ccc(C)c(Nc4nccc(-c5cccnc5)n4)c3)cc(C(F)(F)F)c2)cn1 reported_measurement=39
compound=COc1ccc(S(=O)(=O)N(CCO)c2ccccc2CN(C)C/C=C/c2ccc(Cl)cc2)cc1.O=P(O)(O)O reported_measurement=97
